The origin of these recorded values is ChEMBL document CHEMBL5233269.

Recorded IC50 by entry
- Test system: HepG2
- runDescription: Cytotoxicity against human HepG2 cells incubated overnight by MTT assay
- Type: functional, cell-based

Some compounds with known IC50 results, for comparison:
compound="O=C(/C=C/c1cccc(Br)c1)[C@H]1[C@H](c2cccc(Br)c2)C2CSCN2[C@]12C(=O)Nc1cc(Br)c(Br)cc12 (stereo partly drawn)" quantity=IC50 reading="900 nM"
compound="O=C(/C=C/c1ccc(Br)cc1)[C@H]1[C@H](c2ccc(Br)cc2)C2CSCN2[C@]12C(=O)Nc1cc(Br)c(Br)cc12 (stereo partly drawn)" quantity=IC50 reading="50000 nM"

The compound O=C(/C=C/c1ccc(Br)cc1)[C@H]1[C@H](c2ccc(Br)cc2)C2CSCN2[C@]12C(=O)Nc1ccccc12 (stereo partly drawn) , tested on HepG2, showed IC50 of 800 nM

---

- Test system: MDA-MB-231
- runDescription: Cytotoxicity against human MDA-MB-231 cells by MTT assay
- Format: functional, cell-based
quantity: pIC50
Friendly reminder that pIC50 comes from taking -log10 of the concentration in mol/L.

The compound Cc1ccc2c(c1)C1(CC(=O)C=NO1)C(=O)N2 (stereo unspecified) , tested on MDA-MB-231, showed pIC50 of 6.47

---

Recorded inhibition at 50 µM by entry
- runDescription: Inhibition of cell proliferation in human MCF-10A cells at 50 uM by MTT colorimetric cell viability assay relative to control
- Assay type: toxicity, cell-based
I only need the number, in %, no unit after it.

Some compounds with known inhibition at 50 µM results, for comparison:
compound="COc1cc(OC)c(C2NCCC23C(=O)Nc2ccccc23)cc1OC (stereo not drawn)" reading=0.8
compound="O=C1Nc2ccccc2C12CCNC2c1ccccc1 (stereo not drawn)" reading=0.08

Moving on to the next compound.
inhibition at 50 µM recorded for this compound, O=C1Nc2ccccc2C12CCNC2c1cccc(F)c1 (stereo not drawn) , is 4.48

---

- Tested on: MDA-MB-231
- runDescription: Anticancer activity against human MDA-MB-231 cells measured after 48 hrs by MTT assay
- Type: functional, cell-based
- experimentalConditions: MDA-MB-231, 48 h
quantity: IC50 (µM)
I only need the number, in µM, no unit after it.

compound="O=C1NC2(C3=C(C(=O)C4C=CC=CC4C3=O)c3ccccc32)c2ccccc21 (stereo not drawn)" studysystem=MDA-MB-231 quantity=IC50 unitsymbol=µM reading=6.88

IC50 recorded for this compound, O=C1NC2(C3=C(C(=O)C4C=CC=CC4C3=O)c3cc(Cl)ccc32)c2ccccc21 (stereo not drawn) , is 17.6

IC50 recorded for this compound, O=C1NC2(C3=C(C(=O)C4C=CC=CC4C3=O)c3ccccc32)c2cc(Cl)c(Cl)cc21 (stereo not drawn) , is 3.01

---

Recorded pIC50 by entry
- Test system: HeLa
- runDescription: Antiproliferative activity against human HeLa cells
- Format: functional, cell-based
Friendly reminder that pIC50 comes from taking -log10 of the concentration in mol/L.

molecule="O=C1C=CC2(C=C1Br)OCC(=O)N2c1nc(-c2cccc(Cl)c2)nn1-c1ccccc1 (configuration not stated)" quantity=pIC50 reading=7.34

Moving on to the next molecule.
pIC50 recorded for this molecule, COc1ccc(-n2nc(-c3ccccc3)nc2N2C(=O)COC23C=CC(=O)C=C3)cc1 , is 8.00
